test system: Stagonospora nodorum; test: microbe, parasite or virus in culture; assay type: cell-based
Attribute measured: Fungicidal activity IC50, S. nodorum

Reference set (4 entries):
1. OC(c1cccnc1)c1c(-c2ccc(F)cc2F)csc1-c1ccc(Cl)cc1 (centres unmarked)
B (c)
2. OC(c1cccnc1)c1c(-c2ccc(Cl)cc2)csc1-c1cccs1 (centres unmarked)
A (d)
3. Cc1ccc(-c2csc(-c3ccc(F)cc3F)c2C(O)c2cccnc2)s1 (centres unmarked)
A (b)
4. OC(c1cccnc1)c1c(-c2ccc(Cl)cc2)csc1-c1ccc(Cl)cc1 (centres unmarked)
B (d)

Read the next record carefully.
Task: # input molecule: OC(c1cccnc1)c1c(-c2cccs2)csc1-c1ccc(Cl)cc1 (centres unmarked) ; wanted: its Fungicidal activity IC50, S. nodorum
Output: A (d)
